Sourced from PubChem BioAssay (NCATS)

experimental details: qHTS for Inhibitors of the Functional Ribonucleoprotein Complex (vRNP) of Lassa (LASV) Arenavirus: Viability assay - alamar blue signal for LASV Primary Screen (AID 1347083); further: nearly all actives have a fitted effect of over 80% in size
setup conditions: cell viability, alamar blue fluorescence (LASV minigenome counter-screen); series mostly up to 57.5 µM
Results filed as inconclusive are left out. The source made the active and inactive calls. The call rests on the fitted dose curve; tested in HEK293 reporter line.
In this exercise, the only acceptable responses are active, inactive

The following molecules have reported results that may help.
COc1cc(C(=O)O[C@H]2C/C(C)=C/CC/C(C)=C/[C@@H](O)C2C(C)C)ccc1O (some centres undefined): inactive
O=C(O)CCC=CCC[C@@H]1[C@H](N2CCCCC2)[C@@H](O)C[C@@H]1OCc1ccc(-c2ccccc2)cc1: inactive
COc1cc2c(OC(C)=O)c3c(c(-c4ccc5c(c4)OCO5)c2cc1OC)C(=O)OC3: inactive

[in] What did the test return for CCCC/C=C\CCCCCCCCCC=O ?
[out] inactive

[in] What did the test return for CCC1(O)CC2CN(CCc3c([nH]c4ccccc34)[C@@](C(=O)OC)(c3cc4c(cc3OC)N(C)C3[C@]45CCN4CC=C[C@@](CC)([C@@H](OC(C)=O)[C@]3(O)C(=O)OC)[C@H]45)C2)C1 (some centres undefined) ?
[out] active

[in] What did the test return for NCC(=O)Nc1ccc(-n2nc(C(F)(F)F)cc2-c2ccc3c(ccc4ccccc43)c2)cc1 ?
[out] active

[in] What did the test return for O=C(C=Cc1ccc(O)cc1)c1ccc(O)cc1O ?
[out] inactive

[in] What did the test return for O=C(OCCc1ccccc1)c1ccccc1 ?
[out] inactive

[in] What did the test return for c1ccc(-c2ccncc2)cc1 ?
[out] inactive

[in] What did the test return for COc1ccc2c(c1OC)C(=O)OC2[C@H]1c2c(cc3c(c2OC)OCO3)CCN1C (some centres undefined) ?
[out] active

[in] What did the test return for C#CCN(C)CC1=Cc2ccccc2Oc2ccccc21 ?
[out] inactive

[in] What did the test return for COc1cc2c(cc1O)[C@@H]1Cc3cc(OC)c(OC)cc3C(C2)N1C ?
[out] inactive

[in] What did the test return for O=C(NC[C@H](O)CO)c1ccncc1Nc1ccc(I)cc1F ?
[out] inactive

[in] What did the test return for COc1ccc2c(=O)c(-c3ccc(OC)c(OC)c3)coc2c1 ?
[out] inactive

[in] What did the test return for Cc1ccc(NC(=O)c2cccc(N(C)C)c2)cc1NC(=O)c1ccc(O)cc1 ?
[out] active
